The measurements presented in this section are drawn from ChEMBL document CHEMBL4049463.

Below are pIC50 values measured for Autotaxin (Mus musculus).
pIC50: −log10 of the molar value.
RECORDED_ENDPOINT: pIC50

Example compounds with recorded pIC50:
COMPOUND	RECORDED_ENDPOINT	ASSAY_VALUE
Nc1cccc(-c2nnc[nH]2)c1	pIC50	3.60
Oc1ccc(-n2ccnc2)cc1	pIC50	3.30
OB(O)c1cccc(O)c1	pIC50	5.00
OB(O)c1ccc2cc[nH]c2c1	pIC50	5.70
COc1cc(COc2ccc(B(O)O)cc2Cl)cc(OC)c1	pIC50	6.50
N#Cc1cccc(B(O)O)c1	pIC50	4.70
COc1cccc(B(O)O)c1	pIC50	4.70
OB(O)c1ccc2nonc2c1	pIC50	5.00
O=C(O)c1ccc2cc[nH]c2c1	pIC50	3.10
OB(O)c1ccc(Cl)cc1	pIC50	5.50

P = OB(O)c1ccccc1 [PHENYLBORONIC ACID]
Q = N#Cc1ccc(B(O)O)cc1
Sorting ascending by pIC50, which comes first: P or Q ? Selection: enter the item's label.
P

P = OB(O)c1ccccc1OCc1cccc(Cl)c1
Q = COc1ccc(B(O)O)cc1
Sorting ascending by pIC50, which comes first: P or Q ? Selection: enter the item's label.
Q

* * *

Below are pIC50 values measured for Autotaxin (Mus musculus, UniProt Q9R1E6).
pIC50: −log10 of the molar value.
RECORDED_ENDPOINT: pIC50

I = OB(O)c1ccccc1CCN1CCN(c2nc(O)c(Cc3ccc(Cl)c(Cl)c3)s2)CC1
II = OB(O)c1ccc(CCCN2CCC(c3nc(O)c(Cc4ccc(Cl)c(Cl)c4)s3)CC2)cc1
Sorting ascending by pIC50, which comes first: I or II ? Selection: enter the item's label.
I
